Biological target: Kinase A and Spo0F (Bacillus subtilis, UniProt P16497)
Construct: made in house; host or cells: recombinant E. coli
Assay: Autophosphorylation of Kinase A and Transphosphorylation of Spo0F Assay (HPK in vitro assay)
Assay type: biochemical
Settings: Table 6, KinA/Spo0F phosphorylation, read-out: IC50
pIC50: −log10 of the molar value.
Recorded Endpoint: pIC50

* CC(C)(C)c1cc(-c2nc3ccc(C(=O)O)cc3[nH]2)c(O)c(C(C)(C)C)c1 | 4.07

* * *

Listed next: entries and their corresponding IC50.
Biological target: Kinase A and Spo0F (Bacillus subtilis, UniProt P16497)
Construct: made in house; host or cells: recombinant E. coli
Assay: Autophosphorylation of Kinase A and Transphosphorylation of Spo0F Assay (HPK in vitro assay)
Assay type: biochemical
Conditions: Table 6, KinA/Spo0F phosphorylation, in µM
Recorded Endpoint: IC50

* CC(C)(C)c1cc(-c2nc3ccc(C4=NCCCN4)cc3[nH]2)c(O)c(C(C)(C)C)c1 | 32
* CC(C)(C)c1cc(-c2nc3ccc(C4=NCCN4)cc3[nH]2)c(O)c(C(C)(C)C)c1 | 4
* CC(C)(C)c1cc(-c2nc3ccc(N)cc3[nH]2)c(O)c(C(C)(C)C)c1 | 152
* c1ccc(Oc2ccc(-c3nc4ccc(C5=NCCN5)cc4[nH]3)cc2)cc1 | 112.4

* * *

Biological target: Kinase A and Spo0F (Bacillus subtilis)
Construct: made in house; host or cells: recombinant E. coli
Sequence (P16497 1-606): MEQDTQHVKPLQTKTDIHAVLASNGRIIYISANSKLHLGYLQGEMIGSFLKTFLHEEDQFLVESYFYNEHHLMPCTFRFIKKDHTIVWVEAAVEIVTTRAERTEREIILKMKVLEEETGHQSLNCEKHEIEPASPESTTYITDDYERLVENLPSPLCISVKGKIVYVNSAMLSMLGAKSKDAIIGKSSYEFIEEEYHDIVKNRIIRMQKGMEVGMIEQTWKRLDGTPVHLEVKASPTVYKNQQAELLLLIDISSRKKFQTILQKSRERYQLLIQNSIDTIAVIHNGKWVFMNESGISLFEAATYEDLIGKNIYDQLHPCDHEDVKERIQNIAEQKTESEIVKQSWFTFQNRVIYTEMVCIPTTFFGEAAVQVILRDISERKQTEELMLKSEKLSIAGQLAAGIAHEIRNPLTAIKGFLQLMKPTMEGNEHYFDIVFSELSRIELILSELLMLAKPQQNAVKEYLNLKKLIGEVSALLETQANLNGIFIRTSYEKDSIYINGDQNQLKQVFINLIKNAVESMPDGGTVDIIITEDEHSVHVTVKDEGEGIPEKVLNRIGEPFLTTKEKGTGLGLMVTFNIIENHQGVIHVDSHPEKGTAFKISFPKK
Experiment: Autophosphorylation of Kinase A and Transphosphorylation of Spo0F Assay (HPK in vitro assay)
Type: biochemical
Details: Table 3, KinA/Spo0F phosphorylation, read-out: IC50
Recorded Endpoint: IC50

• N=C(N)c1ccc2[nH]c(-c3cccc(Oc4cc(Cl)cc(Cl)c4)c3)nc2c1 = 32 µM
• N=C(N)c1ccc2[nH]c(-c3cccc(Oc4ccc(Cl)cc4)c3)nc2c1 = 28 µM
• N=C(N)c1ccc2[nH]c(-c3cccc(Oc4ccccc4)c3)nc2c1 = 53 µM
• N=C(N)c1ccc2[nH]c(-c3cccc(Oc4cccc(C(F)(F)F)c4)c3)nc2c1 = 48 µM
• CC(C)(C)c1ccc(Oc2cccc(-c3nc4cc(C(=N)N)ccc4[nH]3)c2)cc1 = 31.6 µM
• COc1ccc(Oc2cccc(-c3nc4cc(C(=N)N)ccc4[nH]3)c2)cc1 = 69.2 µM
